target system: TJP2_1, Q9UDY2
Sequence (Q9UDY2 24-128): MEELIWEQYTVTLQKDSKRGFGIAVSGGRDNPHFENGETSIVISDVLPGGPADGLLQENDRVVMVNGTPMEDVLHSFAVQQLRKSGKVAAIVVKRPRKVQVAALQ
assay comment: holdup assay
Set-up: key: below the threshold = too weak to quantify, mostly under pKd 3.1 to 4
test context: plain residues with an end cap or a label only (N-terminal biotin on a linker: ado-ado)
value type: pKd

Here are 5 binders together with their reported answers.
[[record]]
binder = "DFLSTFHIRI [CIB2, O75838]"
observed_measurement = "below the threshold"

[[record]]
binder = "LPAVCYDIDI [PTTG2, Q9NZH5]"
observed_measurement = "below the threshold"

[[record]]
binder = "ILRKSTTTTV [PRR16, Q569H4]"
observed_measurement = 3.83

[[record]]
binder = "GEDRSPPTAL [MKNK1, Q9BUB5]"
observed_measurement = "below the threshold"

[[record]]
binder = "RSSGGDDFWF [KCNV1, Q6PIU1]"
observed_measurement = "below the threshold"


Task item: Find the recorded pKd belonging to VKRNSKETVV [MARCHF3, Q86UD3] and report it.
Reply: 3.8

Task item: Name the recorded pKd for RDPPAEWTRV [PTPN18, Q99952] .
Reply: 3.6

Task item: Can you look up the measured pKd of AEASVACSLC [PTGIR, P43119] for me?
Reply: below the threshold
